Value source: PubChem BioAssay AID686978

# method-summary: qHTS for Inhibitors of human tyrosyl-DNA phosphodiesterase 1 (TDP1): qHTS in cells in absence of CPT; further: nearly all actives have a fitted effect of over 55% in size
# reported-conditions: DT40 Tdp1-/- hTDP1 cells, no CPT, ATP luminescence, 48 h; series mostly up to 46.2 µM
Among all 420,000 compounds or so, about 64,000 (15%) were called active. Another 27% or so got no clear call; they are omitted. The call rests on the fitted dose curve; in most records, active means well fitted inhibition curve with a large enough effect; inconclusive means small, poorly fitted or top-dose-only effect; inactive means flat fitted curve, though single readings scatter. This is one part of a sample in which actives are shown more often than they occur.
// classify into active, inactive

CN1CCN(/N=C/c2c[nH]c3ccccc23)CC1; inactive
CC(=O)Nc1ccccc1C(=O)OCC(=O)c1cccc2ccccc12; inactive
O=C1CC(=O)N(Cc2ccccc2)C(=O)N1CCCCCCN1C(=O)CC(=O)N(Cc2ccccc2)C1=O; inactive
COC(=O)C1=C(c2cc3ccccc3s2)C[C@@H]2CC[C@H]1N2C(=O)NCCO; inactive
COC(=O)C1=C(c2c(C)noc2C)C[C@@H]2CC[C@H]1N2C(=O)NCc1ccc2c(c1)OCO2; inactive
COc1cccc(OC)c1C(=O)NC(=S)N1C[C@H]2C[C@H](C1)c1cccc(=O)n1C2; inactive
C[C@]12CC[C@H](O)CC1=C([N+](=O)[O-])CC1C2CC[C@@]2(C)C1CC[C@@H]2O (stereo partly drawn); inactive
C#C[C@]1(O)CC[C@H]2[C@@H]3CCC4=C/C(=N/O)CC[C@@H]4[C@H]3CC[C@@]21CC; active

Exercise: What classification did Clc1ccc([C@@H]2C[C@H]3CC[C@@H]2N3)cn1 end up with in this test?
Key: inactive

Exercise: Tell me the recorded outcome of this test for Cc1nc2ccccn2c1P(=S)(N1CCCCC1)N1CCCCC1 .
Key: active

Exercise: For COc1ccc(CCn2c(O)c(C=NCCCn3ccnc3)c(=O)[nH]c2=O)cc1OC , which call appears in the assay record?
Key: inactive

Exercise: So what was the verdict on c1cncc(CNCCc2c[nH]c3ccccc23)c1 in this test?
Key: inactive

Exercise: Could you check what this test reported for COC(=O)C1=C(c2ccccc2)C[C@@H]2CC[C@H]1N2C(=O)N1CCCCC1 ?
Key: active

Exercise: # lookup: test call for Fc1ccc(N2CCN(Cc3ccc4c(c3)OCO4)CC2)cc1
Key: inactive

Exercise: Please share the test call associated with COc1ccc(CNCCc2c[nH]c3ccccc23)cc1OC .
Key: active

Exercise: In this assay, the call recorded for CC(C)c1ccc(OCC(=O)N2CCCN(C)CC2)cc1 was what?
Key: inactive

###

# method-summary: qHTS for Inhibitors of human tyrosyl-DNA phosphodiesterase 1 (TDP1): qHTS in cells in absence of CPT; further: nearly all actives have a fitted effect of over 55% in size
# reported-conditions: DT40 Tdp1-/- hTDP1 cells, no CPT, ATP luminescence, 48 h; series mostly up to 46.2 µM
About 64,000 (15%) of roughly 420,000 compounds were called active. Not shown: some 27% with an inconclusive outcome. Calls follow the shape of the dose curve; as a rule, active = well fitted inhibition curve with a large enough effect; inconclusive = small, poorly fitted or top-dose-only effect; inactive = flat fitted curve, though single readings scatter. This excerpt belongs to a sample that is enriched for actives.
Pick one: active, inactive

Some solved entries appear below for comparison.
CC(C)C(N)C(=O)OCCOCn1cnc2c(=O)[nH]c(N)nc21 (stereo unspecified); active
COc1ccccc1OC(=O)c1ccc(C)c(S(=O)(=O)N2CCOCC2)c1; inactive
COc1cccc(C(=O)N2C[C@H]3C[C@@H](C2)c2cccc(=O)n2C3)c1; inactive
Cc1nc2nc(C)c(CCC(=O)N3CCC4(CC3)OCCO4)c(C)n2n1; inactive
Cc1c(Oc2cc(NN3CCCCC3)c([N+](=O)[O-])cc2[N+](=O)[O-])cccc1[N+](=O)[O-]; inactive

Exercise: Lab log entry: COC(=O)C(O)(c1ccc(NC(=O)c2ccco2)c(OC)c1)C(F)(F)F (stereo unspecified) — outcome as called in the assay?
Key: inactive

Exercise: Hi team, can someone confirm the assay call for COc1ccccc1N=Nc1c(O)[nH]c(=S)[nH]c1=O ?
Key: inactive

Exercise: Field: outcome | Entry: O=C(Nc1cccc(OC(=O)N2CCCCC2)c1)N1CCOCC1
Key: active

Exercise: // param item: CCN(CC)c1ccc([N+](=O)[O-])c2cccnc12 ; yields the recorded call
Key: inactive

Exercise: Test call for this compound, please: CN(C)C(=O)Oc1ccc(NC(=O)N2CCOCC2)cc1
Key: inactive

Exercise: Fill in: this test's call for CCN(CC)C(=O)Oc1ccc(NC(=O)N2CCOCC2)cc1 is ___
Key: inactive

Exercise: Fill in: this test's call for O=c1[nH]c(=S)n(C2CC2)c(O)c1/C=N/N1CCOCC1 is ___
Key: inactive

Exercise: Each compound tested received a call. Report the one for Oc1cc2c(cc1CN1CCN(c3ccccc3)CC1)OCO2 .
Key: inactive

Exercise: What is the recorded call for this compound in the test? C[C@@H]1C[C@@H]2O[C@H]2/C=C\C=C\C(=O)Cc2c(Cl)c(O)cc(O)c2C(=O)O1
Key: active

Exercise: What call does the record list for Cc1ncsc1CCCl ?
Key: inactive

Exercise: How did this test come out for CN(C)C(=O)Oc1cc(OC(=O)N(C)C)cc(C(O)CNC(C)(C)C)c1 (stereo unspecified) ?
Key: inactive

Exercise: // outcome(item) with item = CCN1C(=O)C(=Cc2c(C)n(CC(=O)NCC3CCCO3)c3ccccc23)C(=O)N(CC)C1=S (stereo unspecified)
Key: inactive

###

# method-summary: qHTS for Inhibitors of human tyrosyl-DNA phosphodiesterase 1 (TDP1): qHTS in cells in absence of CPT; further: nearly all actives have a fitted effect of over 55% in size
# reported-conditions: DT40 Tdp1-/- hTDP1 cells, no CPT, ATP luminescence, 48 h; series mostly up to 46.2 µM
Hit rate of the full screen: of about 420,000 compounds, about 64,000 (15%) were called active. Not shown: some 27% with an inconclusive outcome. The call rests on the fitted dose curve; in most records, active means well fitted inhibition curve with a large enough effect; inconclusive means small, poorly fitted or top-dose-only effect; inactive means flat fitted curve, though single readings scatter. This excerpt belongs to a sample that is enriched for actives.
Reply using exactly one outcome from active, inactive

Exercise: In this assay, the call recorded for COc1cc(-n2c(=S)[nH]c3ccc(C)cc3c2=O)c(Cl)cc1Cl was what?
Key: active

Exercise: # outcome recorded in this test, key = O=C(CCC(=O)N1C[C@H]2C[C@@H](C1)c1cccc(=O)n1C2)NCc1ccccc1C(F)(F)F
Key: inactive

Exercise: Hi, do you know how O=C(O)/C=C/c1ccc2c(c1)OCO2 came out in this test?
Key: inactive

Exercise: Lab log entry: CCOCCc1c(O)[nH]c(=S)[nH]c1=O — outcome as called in the assay?
Key: inactive

Exercise: I would be grateful if you could indicate the recorded call for C=CCn1c(O)c(/C=N/N2CCOCC2)c(=O)[nH]c1=S .
Key: inactive

###

# method-summary: qHTS for Inhibitors of human tyrosyl-DNA phosphodiesterase 1 (TDP1): qHTS in cells in absence of CPT; further: nearly all actives have a fitted effect of over 55% in size; further: potency means the concentration at half of the fitted maximal effect
# reported-conditions: DT40 Tdp1-/- hTDP1 cells, no CPT, ATP luminescence, 48 h; series mostly up to 46.2 µM
Screen size: about 420,000 compounds; about 64,000 (15%) were called active. Another 27% or so got no clear call; they are omitted. The entries come from a sample that favours actives as a whole.
attribute-measured: Potency

CCOP(=O)(OCC)C(O)c1ccc(OC)cc1OC (stereo unspecified); inactive
CC(=O)N1CN2CN(C(C)=O)CC(C(=O)c3ccc(Br)cc3)(C2)C1; inactive
Cc1ccc(Cn2c(C)c3cnn(CC(=O)N4CCC5(CC4)OCCO5)c(=O)c3c2C)cc1; 14.6 µM (active)
CN1CCN(Cc2ccccc2C(F)(F)F)CC1; inactive
CCOP(=O)(OCC)C(Nc1cccc(C)c1)c1ccc(F)cc1 (stereo unspecified); 16.4 µM (active)

Exercise: Could you share which Potency value was measured for Clc1cccc(Cl)c1Cl ?
Key: inactive

Exercise: Suppose we examine the compound Cc1ccsc1C(=O)C1CCCN(Cc2ccc(O)cc2)C1 (stereo unspecified) ; what Potency value has been reported?
Key: inactive

Exercise: I am curious: what Potency value has been reported for COc1ccc(-c2nc(CS(=O)CC(=O)N3CCC4(CC3)OCCO4)c(C)o2)cc1 (stereo unspecified) ?
Key: inactive

Exercise: Which Potency is reported for this compound? CN(C)C(=O)NC(O)C(Cl)(Cl)Cl (stereo unspecified)
Key: inactive

Exercise: If you can, please state the reported Potency value of Cc1cccc(-n2c(O)c(/C=N/N3CCOCC3)c(=O)[nH]c2=S)c1 .
Key: inactive

Exercise: Query: Potency; subject: OC1/C(=C/c2ccc(C(F)(F)F)cc2)N2CCC1CC2 (stereo unspecified)
Key: inactive

Exercise: # lookup: Potency of CC1=CC(=O)C2=C(C)C[C@H](O)[C@H]3[C@H](C)C(=O)O[C@@H]3C12 (stereo partly specified)
Key: inactive

Exercise: // Potency lookup, key: O=C(CCCn1c(=O)[nH]c2cc(Cl)ccc2c1=O)N1CCC2(CC1)OCCO2
Key: inactive

Exercise: Given CC1CCC(N(C)C2CCN(C)CC2)CC1 (stereo unspecified) , state its recorded Potency.
Key: inactive

Exercise: Returns the measured Potency for the input compound. Input: CCOP(=S)(OCC)C(O)CCCCCn1c(=O)c(F)cn(C2CCCO2)c1=O (stereo unspecified)
Key: inactive

Exercise: Look up Potency for this compound: COc1ccc(C(=O)C2CCCN(Cc3ccc(C)s3)C2)cc1OC (stereo unspecified)
Key: 14.6 µM (active)

Exercise: Please report the recorded Potency for CCN1CCN(C(=O)Cc2coc3cc(C)cc(C)c23)CC1 .
Key: inactive

Exercise: Which Potency reading was recorded for the compound COP(=O)(NS(=O)(=O)c1ccccc1)OC ?
Key: inactive

Exercise: Which Potency is listed for COc1ccc(CNC(=O)c2cc3c(-c4ccccc4F)nn(C)c3s2)c(OC)c1 ?
Key: 6.51 µM (active)

Exercise: Which Potency value is on record for COc1ccc(-n2c(O)c(C(C)=Nc3ccc4c(c3)CCC4)c(=O)[nH]c2=O)cc1 ?
Key: inactive

Exercise: Param item = COc1ccc(C2Oc3c(I)c(OC)cc(OC)c3CC2O)cc1OC (stereo unspecified) ; retrieve measured Potency.
Key: inactive
